Assay: Tmax in Sprague-Dawley rat at 20 mg/kg administered via oral gavage as bolus dose by LC-MS/MS method
Type: ADME, organism-based
Details: in vivo
quantityKind: Tmax (h)
Give the quantity in h, number only.

Quick note, Tmax for Fc1ccc(Nc2cc3[nH]c(-c4ccc(F)c(C(F)(F)F)c4)nc3cn2)nc1 landed at 12

* * *

The following compounds are listed with their measured solubility kinetic at 20 h values.
Experiment: Kinetic solubility of the compound in FaSSIF at pH 6.5 after 20 hrs by shake flask method
Assay type: physicochemical
Conditions: read-out: Kinetic_solubility
Give the quantity in µM, number only.

- compound: "FC(F)(F)c1ccc(Nc2cc3[nH]c(C4CCOC4)nc3cn2)nc1 (stereo not given)"
  unit: "µM"
  solubility kinetic at 20 h: 180
- compound: "FC(F)(F)c1ccc(Nc2cc3[nH]c([C@H]4CC[C@H](C(F)(F)F)CC4)nc3cn2)nc1"
  unit: "µM"
  solubility kinetic at 20 h: 104
- compound: "FC1(F)CCC(c2nc3cnc(Nc4ccc(C(F)(F)F)cn4)cc3[nH]2)CC1"
  unit: "µM"
  solubility kinetic at 20 h: 93

Please find the next compound below.
Quick note, solubility kinetic at 20 h for FC1(F)CC(c2nc3cnc(Nc4ccc(C(F)(F)F)cn4)cc3[nH]2)C1 landed at 161
